System: AncSZ
protocol notes: phosphorylation enrichment, bacterial display (enrichment ratio); higher = better substrate or ligand; peptides without Tyr show the background;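 note: 11-residue human phosphosite peptides and single-mutation variants displayed on the E. coli surface, counted by deep sequencing, each peptide's frequency after selection divided by its frequency in the unselected input library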;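 note: frequency after pTyr selection over input frequency; kinase dosed for 20-30% of maximal phosphorylation in three min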
measured attribute: phosphorylation enrichment
Please state the value as a number alone, without comment.

## Task Tell me phosphorylation enrichment of KLSFSYGQALQ [ALDOB_Y302_R304Q] when tested on AncSZ.
## Result 1

## Task Write down the reported phosphorylation enrichment (system: AncSZ) of PKEEPYKMQEK [SLC5A3_Y565_Q566K]
## Result 0.885

## Task Answer briefly: phosphorylation enrichment recorded on AncSZ for YSPYDYQPCLA [TNS1_Y798]
## Result 2.3

## Task Recall the reported phosphorylation enrichment of YDYKKYGKGLR [ZNF445_Y433] on AncSZ and write it down.
## Result 0.41

## Task Lab note: record phosphorylation enrichment of PKGIRYGQGAG [CSRP3_Y73_G72R] tested on AncSZ.
## Result 0.532

## Task For AncSZ, give phosphorylation enrichment of the listed sequence: QDGFSYLSRQM [LDLR_Y847_P848L_YF]
## Result 0.985

## Task Output reported phosphorylation enrichment of the sequence GARGRYVMGGP [TNK1_Y277] on AncSZ.
## Result 0.7

* * *

tgt: MERTK (UniProt Q12866)
Sequence (Q12866 whole entry, looked up): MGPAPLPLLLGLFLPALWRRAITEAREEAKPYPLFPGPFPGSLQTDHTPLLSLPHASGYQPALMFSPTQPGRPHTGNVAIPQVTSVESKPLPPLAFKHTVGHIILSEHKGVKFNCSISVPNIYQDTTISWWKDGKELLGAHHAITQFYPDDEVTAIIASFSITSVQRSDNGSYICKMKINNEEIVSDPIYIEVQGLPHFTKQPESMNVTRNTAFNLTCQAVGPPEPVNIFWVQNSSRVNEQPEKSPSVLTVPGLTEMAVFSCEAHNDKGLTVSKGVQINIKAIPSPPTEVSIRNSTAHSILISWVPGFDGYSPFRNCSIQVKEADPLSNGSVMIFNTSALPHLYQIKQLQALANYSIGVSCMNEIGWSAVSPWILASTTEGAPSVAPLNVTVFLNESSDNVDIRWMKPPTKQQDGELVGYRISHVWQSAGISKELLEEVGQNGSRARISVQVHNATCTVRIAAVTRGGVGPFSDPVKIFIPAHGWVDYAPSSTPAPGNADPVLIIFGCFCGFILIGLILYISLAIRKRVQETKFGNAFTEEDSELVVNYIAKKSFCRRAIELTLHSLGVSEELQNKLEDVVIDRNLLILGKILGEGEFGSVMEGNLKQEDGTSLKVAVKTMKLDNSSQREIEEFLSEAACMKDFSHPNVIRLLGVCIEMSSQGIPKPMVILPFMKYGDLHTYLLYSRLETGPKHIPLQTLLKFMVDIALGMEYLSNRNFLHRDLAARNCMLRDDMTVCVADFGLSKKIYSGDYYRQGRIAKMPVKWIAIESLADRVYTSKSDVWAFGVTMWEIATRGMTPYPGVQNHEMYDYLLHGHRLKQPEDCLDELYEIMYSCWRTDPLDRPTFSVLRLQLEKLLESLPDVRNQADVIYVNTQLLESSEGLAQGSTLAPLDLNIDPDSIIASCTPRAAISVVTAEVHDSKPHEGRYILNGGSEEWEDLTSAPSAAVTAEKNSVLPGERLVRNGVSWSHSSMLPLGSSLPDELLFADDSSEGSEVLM
protocol notes: phosphorylation enrichment, bacterial display (enrichment ratio); higher = better substrate or ligand; peptides without Tyr show the background
Each entry gets Not fulfilled if its phosphorylation enrichment stays under 0.4, and Fulfilled if its phosphorylation enrichment is 0.4 or above.

## Task Given KEAQVYQAFKL [SUCLG2_Y343] , state whether its phosphorylation enrichment is at least 0.4.
## Result Fulfilled

## Task Can QPTPGYEVGQR [TSC2_Y1788_E1783Q] be said to have phosphorylation enrichment at or above 0.4?
## Result Not fulfilled

## Task Please tell me: is the sequence IRTGIYHGGEP [PIK3CA_Y361_V356I] at or over 0.4 in terms of phosphorylation enrichment?
## Result Fulfilled

## Task Quick check, phosphorylation enrichment >= 0.4? QRALLYEDTLF [UNC13D_Y56_A59T_YF]
## Result Fulfilled

## Task Check this sequence for phosphorylation enrichment at or above 0.4: MAQDIYRASYY [ALK_Y1278_R1275Q]
## Result Fulfilled

## Task Quick check, phosphorylation enrichment >= 0.4? ANYTEYVATRW [CDKL5_Y171]
## Result Fulfilled

## Task Determine whether this sequence has phosphorylation enrichment no lower than 0.4: ARAGEYGAEAL [HBA1_Y25_H21R]
## Result Not fulfilled

## Task Item LSSETYVKSYT [F5_Y2149_M2148T] with phosphorylation enrichment of 0.4 or above?
## Result Fulfilled

## Task Exam item: decide whether the reported phosphorylation enrichment for MDDPRYGVCPL [ZNF100_Y6_M8V] is at least 0.4.
## Result Fulfilled

## Task In plain terms: is recorded phosphorylation enrichment at least 0.4 for DCPASYKKKSM [PDGFRA_Y768_R764C] ?
## Result Not fulfilled

## Task Would you say LHRAHYDLCHT [AHSG_Y314_R317C] shows phosphorylation enrichment at minimum 0.4?
## Result Fulfilled

## Task Form field: phosphorylation enrichment at least 0.4? Entry: EIIPFYGMSTY [FNDC3B_Y175]
## Result Fulfilled

## Task Please indicate if the recorded phosphorylation enrichment for FVFSFYHAFSG [ACTN4_Y265_S262F_YF] meets or exceeds 0.4.
## Result Fulfilled

## Task Record TKQLTYEEQDL [PIK3C3_Y310] ; criterion: phosphorylation enrichment no lower than 0.4. Met?
## Result Fulfilled

## Task Does the sequence SRGSSYNSIPK [FLNC_Y2625_S2626N] have recorded phosphorylation enrichment that is 0.4 or more?
## Result Fulfilled

## Task In plain terms: is recorded phosphorylation enrichment at least 0.4 for GFCSWYRGWAP [TIMP3_Y195_YF] ?
## Result Fulfilled

## Task Is reported phosphorylation enrichment greater than or equal to 0.4 here: NSFKYYMSDDI [ATRX_Y204_C200S]
## Result Fulfilled

* * *

tgt: Hck (UniProt P08631)
Sequence (P08631 whole entry, looked up): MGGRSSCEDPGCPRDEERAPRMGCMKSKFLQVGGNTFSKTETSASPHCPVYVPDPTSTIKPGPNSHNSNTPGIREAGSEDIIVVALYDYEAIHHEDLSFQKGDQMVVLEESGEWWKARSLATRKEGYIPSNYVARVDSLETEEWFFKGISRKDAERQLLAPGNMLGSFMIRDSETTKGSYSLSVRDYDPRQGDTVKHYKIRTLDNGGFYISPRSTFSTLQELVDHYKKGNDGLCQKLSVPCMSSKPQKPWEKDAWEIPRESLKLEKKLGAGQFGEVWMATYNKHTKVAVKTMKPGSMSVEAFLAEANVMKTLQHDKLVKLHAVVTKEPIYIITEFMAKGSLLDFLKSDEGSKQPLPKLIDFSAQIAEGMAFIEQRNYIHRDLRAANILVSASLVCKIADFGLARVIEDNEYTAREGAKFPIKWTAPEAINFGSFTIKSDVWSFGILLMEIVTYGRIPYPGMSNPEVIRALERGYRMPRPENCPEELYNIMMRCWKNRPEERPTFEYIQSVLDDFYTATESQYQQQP
protocol notes: phosphorylation enrichment, bacterial display (enrichment ratio); higher = better substrate or ligand; peptides without Tyr show the background
measured attribute: phosphorylation enrichment
Response field accepts a number only; no unit should be typed.

## Task Return phosphorylation enrichment (reported value) for this sequence: TISPFYCQSLF [CRYAA_Y48_R49C_YF]
## Result 0.643

## Task Give the measured phosphorylation enrichment for MGRVNYGAFIN [GLB1_Y485_YF]
## Result 0.422

## Task Please look at this sequence and report its phosphorylation enrichment: RLLVVYTWTQR [HBB_Y36_P37T]
## Result 0.915

## Task Note phosphorylation enrichment for the sequence shown: YKIYLYTLNDN [FN1_Y1975]
## Result 0.563

## Task Identify the reported phosphorylation enrichment for the following entry. FQCKHYACIRQ [TIMP3_Y182_S179C_YF]
## Result 0.445

## Task Please supply the value of reported phosphorylation enrichment for the item PNQRRYVYYYS [PTEN_Y174_S170N]
## Result 1.29

## Task In one line, give reported phosphorylation enrichment of the entry LRLSSYSTTIR [CYP7B1_Y365] .
## Result 0.615

## Task Input TLSGIYQFNIA [FOXL2_Y81_I84N_YF] , output reported phosphorylation enrichment.
## Result 2.98

## Task Read the entry TNFRLYLRSLE [MTM1_Y71_YF] and write its reported phosphorylation enrichment.
## Result 0.513

## Task Look up and report measured phosphorylation enrichment for this entry: NKVKFYIPFMN [NCR1_Y84_D87Y_YF]
## Result 0.436

## Task Query phosphorylation enrichment for IVLEKYKLLPE [DHFR_Y157_D153V]
## Result 0.458

* * *

Assign phosphorylation enrichment to each entry below.
tgt: Fyn (UniProt P06241)
Sequence (P06241 whole entry, looked up): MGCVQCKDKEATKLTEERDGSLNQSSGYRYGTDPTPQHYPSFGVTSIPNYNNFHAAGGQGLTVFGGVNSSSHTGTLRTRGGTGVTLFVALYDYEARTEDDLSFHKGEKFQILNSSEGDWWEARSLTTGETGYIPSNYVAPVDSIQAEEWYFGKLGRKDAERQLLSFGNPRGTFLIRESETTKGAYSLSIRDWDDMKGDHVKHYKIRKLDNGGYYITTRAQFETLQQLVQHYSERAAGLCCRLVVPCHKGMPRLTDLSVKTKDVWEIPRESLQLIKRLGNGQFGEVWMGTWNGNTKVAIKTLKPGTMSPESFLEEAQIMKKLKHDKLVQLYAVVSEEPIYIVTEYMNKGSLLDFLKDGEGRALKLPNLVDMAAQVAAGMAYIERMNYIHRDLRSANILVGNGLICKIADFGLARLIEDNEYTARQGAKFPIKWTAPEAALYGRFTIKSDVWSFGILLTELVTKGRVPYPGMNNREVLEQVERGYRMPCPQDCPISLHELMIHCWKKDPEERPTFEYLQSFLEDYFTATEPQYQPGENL
protocol notes: phosphorylation enrichment, bacterial display (enrichment ratio); higher = better substrate or ligand; peptides without Tyr show the background
// keep it numeric: no unit symbol after the value

## Task # return phosphorylation enrichment of PQGVRYTYTID [DCX_Y103_I104T] (system: Fyn (UniProt P06241))
## Result 0.587

## Task State the measured phosphorylation enrichment (Fyn (UniProt P06241)) of TPGPNYCPGFN [USH2A_Y463_R464C_YF]
## Result 0.578

## Task Lab note: record phosphorylation enrichment of TEFIQYMRRKN [MAX_Y73_YF] tested on Fyn (UniProt P06241).
## Result 0.547

## Task System Fyn (UniProt P06241). Read-out phosphorylation enrichment. Item DDIPLYLKGGV [COX7A2_Y44_E40D] . Report value.
## Result 0.459

* * *

Test system: Fer (mouse)
protocol notes: phosphorylation enrichment, bacterial display (enrichment ratio); higher = better substrate or ligand; peptides without Tyr show the background
Answer each item with its documented phosphorylation enrichment.
Simply state the number, no unit and no words.

## Task Complete the entry with phosphorylation enrichment for PVLSLYASGRT [ACTA1_Y145_A140P]
## Result 0.539

## Task Report phosphorylation enrichment, nothing else, for this sequence: TSEASYFKSLN [NGEF_Y288_YF]
## Result 0.535

## Task Fill in phosphorylation enrichment for record FAADFYKLLGN [ROR2_Y646_YF]
## Result 0.366

## Task Read off the recorded phosphorylation enrichment for MKDLTYASLCF [ALOX5_Y446]
## Result 1.71

## Task Determine its reported phosphorylation enrichment: KLADIYQAELR [GFAP_Y116_V115I]
## Result 0.502

## Task Note phosphorylation enrichment for the sequence shown: HRAVEYLLMGI [RAD23A_Y197_T200M]
## Result 0.351

## Task Quick one: give measured phosphorylation enrichment for TFEPNYGTVKQ [RAPGEF6_Y1447_YF]
## Result 0.881

## Task In one line, give reported phosphorylation enrichment of the entry MDDPRYGVCPL [ZNF100_Y6_M8V] .
## Result 0.56

## Task Given the sequence ENGPFYASFPP [GDAP2_Y488_T489A_YF] , write its reported phosphorylation enrichment.
## Result 7.77

## Task Look up and state reported phosphorylation enrichment for PFSSPYENSLI [EPOR_Y489_N487S_YF]
## Result 3.51

## Task Please list phosphorylation enrichment recorded for the sequence RQNQEYEILMD [KRT39_Y379_L383M]
## Result 0.705

## Task Please give the documented phosphorylation enrichment of VVKLAYNENDN [CAMKK2_Y183]
## Result 0.484

## Task Output phosphorylation enrichment of FPKAHYHWLVL [APTX_Y214_R213H_YF]
## Result 0.645

## Task Note phosphorylation enrichment for the sequence shown: MTFMFYRENLR [NLRP14_Y443_V441M_YF]
## Result 0.705

## Task Provide one value: measured phosphorylation enrichment of GEFHVYRHLRR [PRKRIP1_Y82]
## Result 0.4

## Task For the sequence TISPYYRQSLF [CRYAA_Y48] , give its reported phosphorylation enrichment.
## Result 0.479

## Task Please list phosphorylation enrichment recorded for the sequence KMKGEYFRFLA [YWHAG_Y130_D129E_YF]
## Result 0.7

## Task Using known records, supply phosphorylation enrichment for KYLENYYDLEK [MMP3_Y41_K45E]
## Result 0.664

## Task Specify phosphorylation enrichment for TLEKFYFAFPG [SLC1A1_Y51] and stop.
## Result 0.496

## Task Please report phosphorylation enrichment for the following sequence: KSSDVYVSYDY [SORL1_Y136]
## Result 0.914

## Task Give phosphorylation enrichment for the following sequence: ESAAIYNPVIY [RHO_Y301_K296E]
## Result 17.5

## Task Report measured phosphorylation enrichment; entry is IMVFVYSRVFQ [ADRB2_Y219]
## Result 0.487

## Task Find the measured phosphorylation enrichment of EFISEFCGEII [EZH2_Y641_Y641F] and report it.
## Result 0.591

## Task Give the value of phosphorylation enrichment reported for the following: MKALGYFAVVK [OPA1_Y498_T503K]
## Result 0.596

## Task Fill in phosphorylation enrichment for record VGTKRYVAPEV [ACVRL1_Y375_M376V]
## Result 0.474

## Task // Input: PLSGEYFTLQI [TP53_Y327_D324S] . Output its phosphorylation enrichment only.
## Result 0.722

## Task Quick one: give measured phosphorylation enrichment for GIVEDYRPTFF [ACVRL1_Y421_P424T_YF]
## Result 0.468

## Task Identify phosphorylation enrichment associated with the sequence YLQEIYNSNNQ [FGG_Y140]
## Result 0.512

Sourced from the supplement of paper PMC10065799
